# GI50 values compiled below
System: TK-10 renal
Assay: NCI tumour cell line growth inhibition, 48 h

compound: Oc1ccccc1C=Nc1nc(SCc2ccccc2)nc2[nH]ncc12
experimental-target: TK-10 renal
result: 23900 nM

compound: COc1cc(/C=N/NC(=O)c2cnn3c2NC(c2ccccc2)C3)ccc1Oc1ccccc1 (centres undefined)
experimental-target: TK-10 renal
result: 2620 nM

compound: COc1cc2c(cc1OCCCCCOc1ccc(-n3c(C)nc4ccccc4c3=O)cc1)N=C[C@@H]1CCCN1C2=O
experimental-target: TK-10 renal
result: 320 nM

Alright, here's another compound for you.
Q. Give the reported GI50 for `COc1cc(Cl)cc(-c2nn(-c3cccc(NC(=O)Nc4cc(C(F)(F)F)cc(C(F)(F)F)c4)c3)cc2-c2ccncc2)c1` (system: TK-10 renal).
A. 684 nM
